B1: Hairpin Ribozyme (parent)
chain: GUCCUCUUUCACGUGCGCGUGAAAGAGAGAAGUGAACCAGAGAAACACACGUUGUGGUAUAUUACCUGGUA

# Variants of: B1
# assay text: self-cleavage, relative activity (ratio to wild type); higher = more cleavage; co-transcriptional
Decision: self-cleavage compared against 0.3; not below it gives True, below it gives False.

INSERT INTO results (mutant_id, class_name) VALUES
  ('U53G U58C', 'True'),
  ('G42U A43U', 'False'),
  ('U9G C18U', 'True'),
  ('A49G C65G', 'False'),
  ('U5G G68A', 'False'),
  ('C16A U62C', 'False'),
  ('A28G A35G', 'True'),
  ('A22G A23C', 'True'),
  ('A23U G69A', 'True'),
  ('A47C G69U', 'False'),
  ('G13A U60A', 'True'),
  ('A31C A59U', 'False'),
  ('C3U C38A', 'False'),
  ('U14G A36G', 'True'),
  ('C18G G42C', 'False'),
  ('A24U U60A', 'True'),
  ('A30C A47U', 'False'),
  ('G25C A47C', 'False'),
  ('U52A U53C', 'True');
